B1: ZNF8 (parent)
chain: RTHTGEKPYTCSVCGKSFSRTTCL

Variants of: B1
Assay: protein stability index of a GFP-peptide fusion (GPS, HEK-293T) (PSI 1-6); higher = more stable;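 note: lentivirally expressed fusions sorted by FACS into six bins by GFP to DsRed ratio, PSI derived from sequencing read proportions per bin multiplied by bin number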
Details: c terminus: a fixed tail appended
// reported protein stability index per item
The response must contain the number and no unit.

// solved cases for protein stability index follow
[[record]]
seq_string = "RTHTGEKPYTCSGCGKSFSRTTCL"
value_measured = 2

[[record]]
seq_string = "RTHYGEKPYTCSVCGKSFSRTTCL"
value_measured = 2.27

[[record]]
seq_string = "RTHTGEKPYTCSVSGKSFSRTTCL"
value_measured = 2.41

[[record]]
seq_string = "NTHTGEKPYTCSVCGKSFSRTTCL"
value_measured = 2.6

[[record]]
seq_string = "RTHTGEKPYTCSVCGKSFTRTTCL"
value_measured = 2.41


// query protein stability index value for entry `RTHTGEKPYTCSVCGKSFSRTTGL`
2.43

// query protein stability index value for entry `RTHTGEHPYTCSVCGKSFSRTTCL`
2.93

// query protein stability index value for entry `RTHTGFKPYTCSVCGKSFSRTTCL`
2.11

// query protein stability index value for entry `RTHTGEKPYTCSVCGHSFSRTTCL`
1.99

// query protein stability index value for entry `RTHTGEKPYTCSVCRKSFSRTTCL`
2.17

// query protein stability index value for entry `RTHTGSKPYTCSVCGKSFSRTTCL`
1.92

// query protein stability index value for entry `RTHTGEKPYTCSVCGKMFSRTTCL`
2.03

// query protein stability index value for entry `QTHTGEKPYTCSVCGKSFSRTTCL`
2.33

// query protein stability index value for entry `RTHTGEKPYTCSVAGKSFSRTTCL`
2.17

// query protein stability index value for entry `RTHTGEKPYTCSVCGISFSRTTCL`
1.74

// query protein stability index value for entry `RTMTGEKPYTCSVCGKSFSRTTCL`
2.37

// query protein stability index value for entry `RTHTGEKPYTCSVCGKSSSRTTCL`
2.73

// query protein stability index value for entry `RTHTGEKPYTCSVCGKSFSRTCCL`
4.01

// query protein stability index value for entry `RTHTGEKPSTCSVCGKSFSRTTCL`
2.62

// query protein stability index value for entry `RTHTGEKPYTCSVDGKSFSRTTCL`
2.77

// query protein stability index value for entry `RTHTGEKPYTCSVCGKQFSRTTCL`
2.58

// query protein stability index value for entry `KTHTGEKPYTCSVCGKSFSRTTCL`
2.24

// query protein stability index value for entry `RTHAGEKPYTCSVCGKSFSRTTCL`
2.1

// query protein stability index value for entry `RTVTGEKPYTCSVCGKSFSRTTCL`
2.82

// query protein stability index value for entry `RTHTGTKPYTCSVCGKSFSRTTCL`
2.08

// query protein stability index value for entry `RTHTGEMPYTCSVCGKSFSRTTCL`
2.29

// query protein stability index value for entry `RTHTGEGPYTCSVCGKSFSRTTCL`
3.25
